# ASSAY SYSTEM: ferroportin (Homo sapiens)
# Sequence (Q9NP59 1-571): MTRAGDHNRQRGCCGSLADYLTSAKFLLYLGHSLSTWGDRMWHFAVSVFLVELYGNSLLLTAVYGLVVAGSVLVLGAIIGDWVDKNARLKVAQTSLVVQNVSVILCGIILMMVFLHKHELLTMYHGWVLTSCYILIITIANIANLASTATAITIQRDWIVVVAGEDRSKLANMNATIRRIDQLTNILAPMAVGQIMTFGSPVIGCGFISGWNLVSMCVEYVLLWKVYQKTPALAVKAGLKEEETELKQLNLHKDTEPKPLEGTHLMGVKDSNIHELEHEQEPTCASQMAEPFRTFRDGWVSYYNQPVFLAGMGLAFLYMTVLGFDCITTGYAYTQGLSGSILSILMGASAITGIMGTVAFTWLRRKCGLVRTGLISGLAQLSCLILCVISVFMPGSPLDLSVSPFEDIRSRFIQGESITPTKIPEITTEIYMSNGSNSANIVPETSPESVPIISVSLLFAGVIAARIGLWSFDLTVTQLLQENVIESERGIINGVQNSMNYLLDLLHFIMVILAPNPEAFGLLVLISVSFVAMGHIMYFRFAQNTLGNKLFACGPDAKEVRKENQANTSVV
# ASSAY PROCEDURE: FPN activity assay: internalization/degradation of ferroportin-GFP in stably transfected HEK293 cells (loss of GFP fluorescence)
# Format: cell-based
# PROTOCOL CONDITIONS: Table 6A; read-out: FPN EC50
# Protocol: Following internalization, the ferroporin protein is degraded. A retro inverse peptide is a peptide with a reversed sequence in all D amino acids. An example is that Hy-Glu-Thr-His-NH2 becomes Hy-DHis-DThr-DGlu-NH2. The EC50 of these reference compounds for ferroportin internalization/degradation was determined according to the FPN activity assay described above. These peptides served as control standards.
Starred links: 1 amine or outer side, 2 acyl side, 3 side chain; linkers in the order of their positions; H or OH if unused. Non-standard residues stand in square brackets, D forms with d. Residues, ends and D or L forms follow the SMILES beside them. Groups on a side chain read outwards from the residue. *: point of attachment. X8 = O=C([C@H](CCc1nn[nH]n1)N[*:1])[*:2]; Dip = N[C@H](C(=O)O)C(c1ccccc1)c1ccccc1; His(τ-Me) = Cn1cnc(C[C@H](N)C(=O)O)c1; Palmitoyl = CCCCCCCCCCCCCCCC(=O)*; β3hF = N[C@H](CC(=O)O)Cc1ccccc1; Isovaleryl = CC(C)CC(=O)*; Octanoyl = CCCCCCCC(=O)*; AEEA = NCCOCCOCC(=O)O; Ahx = NCCCCCC(=O)O; βAla = NCCC(=O)O

- COMPOUND: "CCCCCCCCCCCCCCCC(=O)NCCCCCC(=O)NCCOCCOCC(=O)NCCOCCOCC(=O)NCCCC[C@H](NC(=O)[C@@H](NC(=O)[C@H](C)NC(=O)[C@@H]1CCCN1C(=O)[C@@H](NC(=O)[C@H](Cc1c[nH]cn1)NC(=O)[C@@H](NC(=O)[C@H](CCC(=O)O)NC(=O)CC(C)C)[C@@H](C)O)C(c1ccccc1)c1ccccc1)[C@@H](C)CC)C(=O)N[C@H](CC(N)=O)Cc1ccccc1 [compound 101] (Isovaleryl-ETH[Dip]PAIK([AEEA-AEEA-Ahx-Palmitoyl])[β3hF]-NH2)"
  ASSAY SYSTEM: "ferroportin (Homo sapiens)"
  DC50: "63.5 nM"
- COMPOUND: "CCCCCCCCCCCCCCCC(=O)NCCC(=O)NCCC(=O)NCCCC[C@H](NC(=O)[C@@H](NC(=O)[C@H](C)NC(=O)[C@@H]1CCCN1C(=O)[C@@H](NC(=O)[C@H](Cc1c[nH]cn1)NC(=O)[C@@H](NC(=O)[C@H](CCC(=O)O)NC(=O)CC(C)C)[C@@H](C)O)C(c1ccccc1)c1ccccc1)[C@@H](C)CC)C(=O)N[C@H](CC(N)=O)Cc1ccccc1 [compound 99] (Isovaleryl-ETH[Dip]PAIK([βAla-βAla-Palmitoyl])[β3hF]-NH2)"
  ASSAY SYSTEM: "ferroportin (Homo sapiens)"
  DC50: "103 nM"
- COMPOUND: "CCCCCCCCCCCCCCCC(=O)NCCCCCC(=O)NCCCC[C@H](NC(=O)[C@@H](NC(=O)[C@H](C)NC(=O)[C@@H]1CCCN1C(=O)[C@@H](NC(=O)[C@H](Cc1cn(C)cn1)NC(=O)[C@@H](NC(=O)[C@H](CC(C)C)NC(=O)CC(C)C)[C@@H](C)O)C(c1ccccc1)c1ccccc1)[C@@H](C)CC)C(=O)N[C@H](CC(N)=O)Cc1ccccc1 [compound 45] (Isovaleryl-LT[His(τ-Me)][Dip]PAIK([Ahx-Palmitoyl])[β3hF]-NH2)"
  ASSAY SYSTEM: "ferroportin (Homo sapiens)"
  DC50: "> 3000 nM"
- COMPOUND: "CCCCCCCC(=O)NCCCCCC(=O)NCCCC[C@H](NC(=O)[C@@H](NC(=O)[C@H](C)NC(=O)[C@@H]1CCCN1C(=O)[C@@H](NC(=O)[C@H](Cc1c[nH]cn1)NC(=O)[C@@H](NC(=O)[C@H](CCC(=O)O)NC(=O)CC(C)C)[C@@H](C)O)C(c1ccccc1)c1ccccc1)[C@@H](C)CC)C(=O)N[C@H](CC(N)=O)Cc1ccccc1 [compound 103] (Isovaleryl-ETH[Dip]PAIK([Ahx-Octanoyl])[β3hF]-NH2)"
  ASSAY SYSTEM: "ferroportin (Homo sapiens)"
  DC50: "162 nM"
- COMPOUND: "CC[C@H](C)[C@H](NC(=O)[C@H](C)NC(=O)[C@@H]1CCCN1C(=O)[C@@H](NC(=O)[C@H](Cc1cn(C)cn1)NC(=O)[C@@H](NC(=O)[C@H](CCc1nn[nH]n1)NC(=O)CC(C)C)[C@@H](C)O)C(c1ccccc1)c1ccccc1)C(=O)N[C@@H](CCCCNC(C)=O)C(=O)N[C@H](CC(=O)N[C@H](CCCCN)C(N)=O)Cc1ccccc1 [compound 41] (Isovaleryl-[X8]T[His(τ-Me)][Dip]PAIK(Ac)[β3hF][dK]-NH2)"
  ASSAY SYSTEM: "ferroportin (Homo sapiens)"
  DC50: "> 3000 nM"
- COMPOUND: "CC[C@H](C)[C@H](NC(=O)[C@H](C)NC(=O)[C@@H]1CCCN1C(=O)[C@@H](NC(=O)[C@H](Cc1cn(C)cn1)NC(=O)[C@@H](NC(=O)[C@H](CCC(=O)O)NC(=O)CC(C)C)[C@@H](C)O)C(c1ccccc1)c1ccccc1)C(=O)N[C@@H](CCCCNC(C)=O)C(=O)N[C@H](CC(=O)N[C@H](CCCCN)C(=O)N[C@@H](C)C(N)=O)Cc1ccccc1 [compound 36] (Isovaleryl-ET[His(τ-Me)][Dip]PAIK(Ac)[β3hF][dK]A-NH2)"
  ASSAY SYSTEM: "ferroportin (Homo sapiens)"
  DC50: "> 3000 nM"
